- Test system: SK-OV-3
- Procedure text: NCI tumour cell line growth inhibition, 48 h
Activity calls are given as the source filed them. No stated cut-off is given here; in the data, active = GI50 up to about 1.1 µM and inactive = higher.
Attribute measured: GI50

Given the compound COc1c(C)c(C/C=C(\C)CC/C=C(\C)CC/C=C(\C)CC/C=C(\C)CCC=C(C)C)c(OC)c(OC)c1OC , what is its reported GI50?
> 100 µM (inactive)

Request: CCCCC1CC(c2ccc(Cl)cc2)=NO1 (stereo not given)
> 100 µM (inactive)

Request: COc1c(C)c(C/C=C(\C)CCCCO)c(OC)c2ccccc12
> 100 µM (inactive)

Request: COc1cccc(N2C(=O)[C@H]3CC(C)c4c([nH]c5ccccc45)[C@H]3C2=O)c1 (stereo not given in full)
27.7 µM (inactive)

Request: CC1OC(OC2C(OC(=O)[C@@H]3CC(C)(C)C[C@@H]4C5=CC[C@@H]6[C@@]7(C)C[C@H](O)[C@H](OC8OC(CO)C(O)C(O)C8O)[C@@](C)(CO)C7[C@H](O)C[C@@]6(C)[C@]5(C)C[C@@H](O)[C@H]43)OCC(O)C2O)C(O)C(O)C1O (stereo not given in full)
> 15 µM (inactive)

Request: O=C(c1ccccc1)C1C(c2ccccc2)N1S(=O)(=O)c1ccccc1 (stereo not given)
> 100 µM (inactive)

Request: CC1(C)CC(=O)c2c(nc(SSc3nc4c(c(-c5ccccc5)c3C#N)C(=O)CC(C)(C)C4)c(C#N)c2-c2ccccc2)C1
> 10 µM (inactive)

Request: O=C1NC(Nc2ccccc2)=N/C1=C\c1c(Cl)cccc1Cl
21.6 µM (inactive)

Request: OCCC1(O)CCC(O)CC1 (stereo not given)
> 100 µM (inactive)

Request: O=c1c2ccccc2nc(-c2ccccc2)n1NC1OC(CO)C(O)C(O)C1O (stereo not given)
> 100 µM (inactive)
